experiment: In vivo pharmacokinetic study of GK-667 in rabbits, noncompartmental analysis; design: species or system rabbit; details: male, New Zealand White, rabbit, plasma, iv; rabbits n = 6, GK-667 5 mg/kg i.v., NCA; read-out: Tmax (converted)
READOUT TYPE: Tmax (min)
I only need the number, in min, no unit after it.

Reported Tmax of C[C@H]([C@H](C)N1CC(=O)N(COC(=O)CN)C(=O)C1)N1CC(=O)N(COC(=O)CN)C(=O)C1 [GK-667] : 5

----------
experiment: In vivo pharmacokinetic study of GK-667 in rabbits, noncompartmental analysis; design: species or system rabbit; conditions: male, New Zealand White, rabbit, plasma, iv; rabbits, GK-667 5 mg/kg i.v.; read-out: median tmax
READOUT TYPE: Tmax (h)
I only need the number, in h, no unit after it.

Reported Tmax of C[C@H]([C@H](C)N(CC(N)=O)CC(=O)O)N(CC(N)=O)CC(=O)O [ICRF-193met] : 2
